System: P. yoelii
Protocol Description: Single dose cure of patent infection in mice
Assay type: in vivo
Measurement Context: dose required to clear patent infection without recrudescence for 30 days post-infection, PEG-400
Assign In vivo efficacy (oral) P. yoelii Single Dose Cure to each entry below.
Numeric only. Scale: mg/kg/day

Recorded In vivo efficacy (oral) P. yoelii Single Dose Cure (compound COc1cc2nc(C)c(-c3ccc(Oc4ccc(OC(F)(F)F)cc4)cc3)c(OCOC(=O)OC(C)C)c2cc1Cl ): 5.0

Recorded In vivo efficacy (oral) P. yoelii Single Dose Cure (compound CCOC(=O)OC(C)Oc1c(-c2ccc(Oc3ccc(OC(F)(F)F)cc3)cc2)c(C)nc2cc(OC)c(Cl)cc12 (stereo not shown) ): 5.0

----------
System Name: UniProt:P00156
Protocol Description: Human cytochrome bc1 inhibition
Type: biochemical
Measurement Context: read-out: Human cytochrome bc1 EC50
pEC50: −log10 of the molar value.
Quantity Kind: pEC50

Recorded pEC50 (molecule CCOC(=O)Oc1c(-c2ccc(Oc3ccc(OC(F)(F)F)cc3)cc2)c(C)nc2cc(OC)c(Cl)cc12 ): < 5.00

----------
Test system: P. falciparum Tm90-C2B (Chloroquine and Atovaquone resistant)
Protocol Description: 72 h SYBR Green I assay, P. falciparum Tm90-C2B
Assay type: cell-based
Measurement Context: Plasmodium falciparum, TM90, 72 h, read-out: In vitro activity vs. P. falciparum IC50, C2B
Quantity Kind: IC50

Recorded IC50 (compound CCN(CC)CCCC(C)Nc1ccnc2cc(Cl)ccc12 (stereo not shown) ): 98 nM

----------
Tested on: P. falciparum D6 (drug sensitive)
Protocol Description: 72 h SYBR Green I assay, P. falciparum D6
Type: cell-based
Measurement Context: Plasmodium falciparum, D6, 72 h, read-out: In vitro activity vs. P. falciparum IC50, D6
Quantity Kind: pIC50
Hey, just a heads up that pIC50 is the negative log base 10 of the concentration in molar.

The recorded pIC50 with P. falciparum D6 (drug sensitive) for CCN(CC)CCCC(C)Nc1ccnc2cc(Cl)ccc12 (stereo not shown) was 8.00
